Origin of the recorded values: PubChem BioAssay (NCI)

# Tested on: 786-0 renal
# protocol: NCI tumour cell line growth inhibition, 48 h
testReadout: GI50

Incoming: // lookup GI50 for COc1cc[nH]c1/C=C1\C(=O)Nc2ccc(F)c(C#CC3(O)CCNCC3)c21
Outgoing: 0.106 µM

Incoming: // lookup GI50 for NC(=O)NS(=O)(=O)c1ccc(N2N=C(C(F)(F)F)CC2c2cc(C(F)(F)F)cc(C(F)(F)F)c2)cc1 (stereo not given)
Outgoing: 7.14 µM

Incoming: // lookup GI50 for O=C(O)CCNC1CCCCC1
Outgoing: > 100 µM

Incoming: // lookup GI50 for CS(=O)(=O)CCNCc1ccc(-c2ccc3ncnc(Nc4ccc(OCc5ccccc5)cc4)c3c2)o1
Outgoing: 4.35 µM

Incoming: // lookup GI50 for COc1ccc2c(c1)CCCN2c1c2ccccc2nc2ccccc12
Outgoing: 0.549 µM

Incoming: // lookup GI50 for CS(=O)(=O)c1ccc(-n2nc(C(F)(F)F)cc2OC2CCCC2)cc1
Outgoing: 34 µM

Incoming: // lookup GI50 for CCCCCCCC[C@@H](O)CC(=O)N[C@@H](CC(N)=O)C(=O)N[C@@H](CCC(N)=O)C(=O)N[C@@H](CC(=O)c1cc(C)cc(O)c1C(=O)c1c(O)cccc1O)CC(C)C
Outgoing: 0.507 µM

Incoming: // lookup GI50 for CCCCCCCC(=O)OCC/C=C/C1OC1C1OC(=O)/C=C\C=C\c2nc(oc2C)/C=C(/C)CCC2OC2C1OC(=O)NC(C)=O (stereo not given)
Outgoing: 0.033 µM

Incoming: // lookup GI50 for Nc1nc(N(Cc2ccccc2)c2ccccc2)c2cn[nH]c2n1
Outgoing: 4.63 µM

Incoming: // lookup GI50 for CCCn1c(=S)sc2c1nc(C)n1c(Nc3ccccc3)nnc21
Outgoing: 4.3 µM
